This collection of values is drawn from patent US20260034094A1.

Biological target: human recombinant GCL (Homo sapiens (Human), UniProt P48506)
Sequence (P48506 whole entry): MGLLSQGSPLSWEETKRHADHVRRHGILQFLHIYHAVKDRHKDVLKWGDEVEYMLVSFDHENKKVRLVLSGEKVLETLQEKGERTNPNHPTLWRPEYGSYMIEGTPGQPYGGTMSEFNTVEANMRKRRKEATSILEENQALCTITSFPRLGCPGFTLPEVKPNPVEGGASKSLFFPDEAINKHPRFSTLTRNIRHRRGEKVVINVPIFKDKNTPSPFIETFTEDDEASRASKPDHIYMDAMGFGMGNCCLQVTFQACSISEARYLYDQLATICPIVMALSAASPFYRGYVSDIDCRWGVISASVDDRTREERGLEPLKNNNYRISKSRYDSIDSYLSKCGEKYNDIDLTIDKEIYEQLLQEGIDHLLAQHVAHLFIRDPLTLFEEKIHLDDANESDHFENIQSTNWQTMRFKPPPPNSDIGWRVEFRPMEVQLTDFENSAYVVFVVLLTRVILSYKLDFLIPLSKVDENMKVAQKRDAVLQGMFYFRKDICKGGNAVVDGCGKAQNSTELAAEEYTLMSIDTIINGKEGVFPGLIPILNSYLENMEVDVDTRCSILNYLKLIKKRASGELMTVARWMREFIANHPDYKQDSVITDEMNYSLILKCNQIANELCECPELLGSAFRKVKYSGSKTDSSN
Test: GCL enzyme profiling assay (ADP-Glo luminescence)
Type: biochemical
Conditions: human recombinant GCL, ADP-Glo; read-out: GCL IC50

compound: N=S(=O)(CC[C@H](N)C(=O)O)CCC1(c2ccc(-c3ccc(Cl)cc3Cl)cc2)CCC1 (stereo partly shown) [Compound 402]
IC50: ≤ 20 µM
//
compound: N=S(=O)(CC[C@H](N)C(=O)O)CCC(O)(C(=O)O)C(F)(F)F (stereo partly shown) [Compound 333]
IC50: 20 to 2000 µM
//
compound: CCCCOC(=O)[C@@H](N)CCS(=N)(=O)CCC(O)(c1ccc(-c2ccc(Cl)cc2Cl)cc1)C(F)(F)F (stereo partly shown) [Compound 485]
IC50: 20 to 2000 µM
//
compound: N=S(=O)(CC[C@H](N)C(=O)O)CCC(O)(C(F)(F)F)C(F)(F)F (stereo partly shown) [Compound 301]
IC50: ≤ 20 µM
//
compound: N=S(=O)(CCC(c1ccc(-c2ccc(OC(F)(F)F)cc2)cc1)C(F)(F)F)CC[C@H](N)C(=O)O (stereo partly shown) [Compound 233]
IC50: ≤ 20 µM
//
compound: N=S(=O)(CC[C@H](N)C(=O)O)CCC(O)(c1ccc(-c2ccc3ccc(=O)oc3c2)cc1)C(F)(F)F (stereo partly shown) [Compound 425]
IC50: ≤ 20 µM
//
compound: N=S(=O)(CC[C@H](N)C(=O)O)CCC(O)(c1ccc(-c2ccccc2)cc1)C(F)(F)F (stereo partly shown) [Compound 424]
IC50: ≤ 20 µM

* * *

Catalogue of compounds with associated IC50
Molecular target: human recombinant GCL (Homo sapiens (Human))
Test: GCL enzyme profiling assay (ADP-Glo luminescence)
Format: biochemical
Conditions: human recombinant GCL 5 nM, 1 h preincubation with ATP; read-out: GCL IC50

compound: CCCCS(=N)(=O)CC[C@H](N)C(=O)NS(=O)(=O)C(F)(F)F (stereo partly drawn)
IC50: > 2000 µM

compound: CCCCS(=N)(=O)CC[C@H](N)C(=O)NS(=O)(=O)C1CC1 (stereo partly drawn)
IC50: 20 to 2000 µM

compound: CCCCOC(=O)[C@@H](N)CCS(=N)(=O)CCC1CCCC1 (stereo partly drawn)
IC50: > 2000 µM

compound: CCCCNC(=O)[C@@H](N)CCS(=N)(=O)CCC(C)(C)C (stereo partly drawn)
IC50: > 2000 µM

compound: CC(C)(C)CCS(=N)(=O)CC[C@H](N)C(=O)Nc1ccccc1 (stereo partly drawn)
IC50: > 2000 µM

compound: COC(CCS(=N)(=O)CC[C@H](N)C(=O)O)C(F)(F)F (stereo partly drawn)
IC50: ≤ 20 µM

compound: COC(=O)[C@@H](N)CCS(=N)(=O)CCc1nnn[nH]1 (stereo partly drawn)
IC50: > 2000 µM

compound: N=S(=O)(CC[C@H](N)C(=O)O)CCn1ccnc1 (stereo partly drawn)
IC50: > 2000 µM

compound: CCCCOC(=O)[C@@H](N)CCS(=N)(=O)CCC(C)C (stereo partly drawn)
IC50: 20 to 2000 µM

* * *

Target: human recombinant GCL (Homo sapiens (Human))
Experiment: GCL enzyme profiling assay (ADP-Glo luminescence)
Type: biochemical
Conditions: human recombinant GCL, ADP-Glo; read-out: GCL IC50
pIC50: −log10 of the molar value.
Catalogue of compounds with associated pIC50
readout_name: pIC50

compound: N=S(=O)(CC[C@H](N)C(=O)O)CCC(O)(c1ccsn1)C(F)(F)F (some centres unmarked)
readout_name: pIC50
assay_value: ≥ 4.70
--
compound: N=S(=O)(CC[C@H](N)C(=O)O)CCC1(n2nccn2)CCC1 (some centres unmarked)
readout_name: pIC50
assay_value: 2.70 to 4.70
--
compound: N=S(=O)(CCC(c1ccc(-c2cc(Cl)cc(Cl)c2)cc1)C(F)(F)F)CC[C@H](N)C(=O)O (some centres unmarked)
readout_name: pIC50
assay_value: ≥ 4.70
--
compound: N=S(=O)(CCC(C1CCC1)C(F)(F)F)CC[C@H](N)C(=O)O (some centres unmarked)
readout_name: pIC50
assay_value: ≥ 4.70
--
compound: N[C@@H](CCSCCC(O)(c1ncc(-c2ccc(Cl)cc2Cl)cn1)C(F)(F)F)C(=O)O (some centres unmarked)
readout_name: pIC50
assay_value: 2.70 to 4.70
--
compound: C#CC(C)(C)CCS(=N)(=O)CC[C@H](N)C(=O)O (some centres unmarked)
readout_name: pIC50
assay_value: 2.70 to 4.70
--
compound: N=S(=O)(CC[C@H](N)C(=O)O)CCC(O)(c1nsc2ccccc12)C(F)(F)F (some centres unmarked)
readout_name: pIC50
assay_value: ≥ 4.70
--
compound: N=S(=O)(CC[C@H](N)C(=O)O)CCC(O)(c1cc(-c2ccccc2)on1)C(F)(F)F (some centres unmarked)
readout_name: pIC50
assay_value: ≥ 4.70
